Hey, just so you know, these numbers are from paper PMC9298202.

Tested on: Trypanosoma cruzi SN3 epimastigote forms
Assay: Epimastigote assay, T. cruzi SN3
Type: cell-based
Conditions: Trypanosoma cruzi, read-out: Activity IC50 Epimastigote forms
Overview of recorded pIC50 for various molecules
Quick note: pIC50 values are minus log10 of concentrations in mol/L.

Worked set:
# Molecule, pIC50
records = [
    ("Clc1nnc(NCCc2nc3ccccc3[nH]2)c2ccccc12 [2 b]", 4.52),
    ("c1ccc2c(NCCCn3ccnc3)nncc2c1 [1 f]", 3.99),
]

Indicate its recorded pIC50; the molecule in question is c1cnc(NCCCCCn2ccnc2)cn1 [4 d]
4.63

* * *

Tested on: Leishmania braziliensis promastigote forms
Assay: In vitro activity on promastigote
Type: cell-based
Conditions: L. braziliensis; IC50 macrophages toxicity/IC50 activity
Documented Selectivity index Promastigote forms across a set of compounds
The response must contain the number and no unit.

Check out these entries, answers already filled in.
# Smiles Text, Endpoint Value
data = [
    ("c1ccc2c(NCCc3c[nH]cn3)ncnc2c1", 2),
    ("c1cnc(NCCCCCn2ccnc2)cn1", 6),
    ("c1ccc2c(NCCCn3ccnc3)nncc2c1", 12),
    ("c1cnc(NCCCn2ccnc2)cn1", 16),
    ("c1ccc2[nH]c(CCNc3nnc(NCCc4nc5ccccc5[nH]4)c4ccccc34)nc2c1", 3),
    ("c1ccc2c(NCCCn3ccnc3)ncnc2c1", 6),
]

Item "Clc1ccc(NCCCn2ccnc2)nn1" : provide Selectivity index Promastigote forms
1

Give the reported Selectivity index Promastigote forms for this compound. "c1cnc(NCCCCn2ccnc2)cn1"
2

Provide one value: measured Selectivity index Promastigote forms of "Clc1nnc(NCCc2nc3ccccc3[nH]2)c2ccccc12"
4

Give me measured Selectivity index Promastigote forms, please, for this compound: "c1ccc2c(NCCc3c[nH]cn3)nncc2c1"
4

* * *

System: Leishmania infantum amastigote forms
Assay: In vitro activity on amastigote
Format: cell-based
Conditions: L. infantum; IC50 macrophages toxicity/IC50 activity
Endpoint Name: Selectivity index Amastigote forms
Hey, just send me the number, nothing else.

Field: example entries. Status: answers known.
# Molecule, Selectivity index Amastigote forms
data = [
    ("c1ccc2c(NCCCn3ccnc3)ncnc2c1 [3 b]", 4),
    ("c1cnc(NCCCn2ccnc2)cn1 [4 b]", 9),
    ("c1ccc2c(NCCc3c[nH]cn3)nncc2c1 [1 e]", 9),
    ("c1cnc(NCCCCCn2ccnc2)cn1 [4 d]", 5),
    ("c1cnc(NCCCCn2ccnc2)cn1 [4 c]", 4),
]

Query Selectivity index Amastigote forms for c1ccc2c(NCCCn3ccnc3)nncc2c1 [1 f]
20

* * *

Test system: Trypanosoma cruzi SN3 epimastigote forms
Assay: Epimastigote assay, T. cruzi SN3
Format: cell-based
Conditions: Trypanosoma cruzi, read-out: Activity IC50 Epimastigote forms
Endpoint Name: pIC50
pIC50 field: float, defined as -log10 of concentration (mol/L).

// solved cases for pIC50 follow
# Smiles Text, Endpoint Value
measured = [
    ("c1cnc(NCCCn2ccnc2)cn1", 4.80),
    ("Clc1ccc(NCCc2c[nH]cn2)nn1", 4.52),
]

Consider now this further compound.
Provide measured pIC50 value, entry: "Clc1nnc(NCCc2cn3ccccc3n2)c2ccccc12"
4.71

* * *

System: Leishmania donovani amastigote forms
Test: In vitro activity on amastigote
Type: cell-based
Settings: L. donovani; IC50 macrophages toxicity/IC50 activity
The threshold is inclusive: Selectivity index Amastigote forms of exactly 6 counts as Y; values below receive N.

Example entries begin here.
# Molecule, Subject Of Test, Label Class
measured = [
    ("c1ccc2c(NCCCn3ccnc3)ncnc2c1 [3 b]", "Leishmania donovani amastigote forms", "Y"),
    ("c1cnc(NCCCn2ccnc2)cn1 [4 b]", "Leishmania donovani amastigote forms", "Y"),
    ("c1ccc2c(NCCCn3ccnc3)nncc2c1 [1 f]", "Leishmania donovani amastigote forms", "N"),
]

Threshold query (Selectivity index Amastigote forms >= 6) on c1cnc(NCCCCCn2ccnc2)cn1 [4 d]
Y

Dear colleague, could you confirm whether c1cnc(NCCCCn2ccnc2)cn1 [4 c] has Selectivity index Amastigote forms at or above 6?
N
